test system: RARg:RXRa (NR concentration 270 nM, RXRa partner concentration 90 nM); test: PBM binding z-score (relative to random genomic background probes); higher = stronger binding; sequences stand for … in GC…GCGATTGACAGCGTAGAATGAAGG
endpoint: PBM binding z-score

GATACTGGGTCAGCTAGAGGCCAGAGTATGGAAA    5.04
TCGAGTAGGTTAGTCGGGCCATTCAGCCAACATA    -0.285
TCTATTAGTTGATTAGGGCAACCGCAACAGCGGA    0.648
ACTATTAGTTGACTTGGGGCAACCGATACGACGC    0.552
CGAACGAGGGCATTAGTTGATAGCAAATGCCGAT    0.774
TCTCGGAGGACACCAAGGTCAGAGCTTTCCAGAG    2.96
TTACCAAGGTGAGCCGAGGTCGTTGATCCAACTC    1.67
ACTAGTTGGTCAGCTGAGATCACACACAATTCGG    0.638
ATCGACAGGTCGAGGTGAGTATAGAGAAAGGGAA    1.68
ACTAGCAGGCCAAGTTTGGGTCACTTAAACAAAG    2.2
CGAACTAGGTCATGGACAGGACAGTGAATAGTAA    5.08
GATACAGGGTCAAGGCCAGCGTACGCGTATTGAT    5.27
